- Tested Target: DLL3 (Homo sapiens, UniProt Q9NYJ7)
- Assay: SPR KD, biotinylated human DLL3 on streptavidin chip (Table 8)
- Parameters: biotin (biotinylated)
- Details: biotinylated human DLL3 on streptavidin sensor chip, 25° C., 1:1 binding model; read-out: SPR KD
Where a SMILES comes first, the peptide text is derived from it. Bridges are numbered along the chain shown (N, C = ends). [ ]: non-standard residue; d: D form. The star is where a group is joined. DOTA = O=C(O)CN1CCN(CC(=O)O)CCN(CC(=O)*)CCN(CC(=O)O)CC1; 2Nal = N[C@@H](Cc1ccc2ccccc2c1)C(=O)O; Cha = N[C@@H](CC1CCCCC1)C(=O)O
Observed Property: Kd

Assign Kd to the following record: CC(=O)N[C@@H](Cc1c[nH]c2ccccc12)C(=O)N[C@H](C(=O)N[C@@H](CC1CCCCC1)C(=O)N[C@H]1CSSC[C@@H](C(=O)N[C@@H](Cc2c[nH]c3ccccc23)C(=O)N2CCC[C@H]2C(N)=O)NC(=O)[C@H](CC(=O)O)NC(=O)[C@H](CCCCNC(=O)CN2CCN(CC(=O)O)CCN(CC(=O)O)CCN(CC(=O)O)CC2)NC(=O)[C@H](Cc2ccc3ccccc3c2)NC(=O)[C@H](CC(N)=O)NC(=O)[C@H](CC(N)=O)NC1=O)[C@@H](C)O [compound 323] (Ac-WT[Cha]CNN[2Nal]K(DOTA)DCWP-NH2; disulfide 4-10)
< 1 nM

Assign Kd to the following record: CC[C@H](C)[C@H](NC(=O)[C@@H](NC(=O)[C@H](Cc1c[nH]c2ccccc12)NC(=O)[C@H](CCSC)NC(C)=O)[C@@H](C)O)C(=O)N[C@H]1CSSC[C@@H](C(=O)N[C@H](C)C(=O)N2CCC[C@H]2C(N)=O)NC(=O)[C@H](CC(=O)O)NC(=O)[C@H](Cc2cnc[nH]2)NC(=O)[C@H](Cc2c[nH]c3ccccc23)NC(=O)[C@H](CC(N)=O)NC(=O)[C@H](CC(N)=O)NC1=O [compound 9] (Ac-MWTICNNWHDC[dA]P-NH2; disulfide 5-11)
100 to 300 nM

Origin of values: patent US20250049970A1
